Overview of reported Ki across a group of compounds:
target: somatostatin receptors sub-type 5 (Homo sapiens, UniProt P35346)
Sequence (P35346 whole entry): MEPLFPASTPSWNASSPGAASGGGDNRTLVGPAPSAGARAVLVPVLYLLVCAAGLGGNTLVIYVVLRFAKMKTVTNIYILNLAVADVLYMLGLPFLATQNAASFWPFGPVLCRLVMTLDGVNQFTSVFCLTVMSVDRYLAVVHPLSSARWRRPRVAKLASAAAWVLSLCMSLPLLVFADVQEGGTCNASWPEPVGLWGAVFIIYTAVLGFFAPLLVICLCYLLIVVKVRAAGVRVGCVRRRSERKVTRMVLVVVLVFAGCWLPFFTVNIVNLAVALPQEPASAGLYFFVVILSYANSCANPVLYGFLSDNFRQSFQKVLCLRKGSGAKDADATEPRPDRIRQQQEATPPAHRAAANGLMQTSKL
Bridge positions count the residues as written; N and C are the ends. Square brackets hold non-standard residues; d marks the D form. Peptide text beside a SMILES is read from it. ξ: configuration not given here. d2Nal = N[C@H](Cc1ccc2ccccc2c1)C(=O)O; Thr(3ξ) = CC(O)[C@H](N)C(=O)O

CC(C)[C@@H]1NC(=O)[C@H](CCCCN)NC(=O)[C@@H](Cc2c[nH]cn2)NC(=O)[C@H](Cc2ccc(O)cc2)NC(=O)[C@@H](NC(=O)[C@H](N)Cc2ccc3ccccc3c2)CSSC[C@@H](C(=O)N[C@H](C(N)=O)C(C)O)NC1=O (some centres unmarked) [Example 3] (H-[d2Nal]CY[dH]KVC[Thr(3ξ)]-NH2; disulfide 2-7)    ≤ 5000 nM

Next up:
Ask: Tell me Ki reported for CC(C)[C@@H]1NC(=O)[C@H](CCCCN)NC(=O)[C@@H](Cc2ccc(O)cc2)NC(=O)[C@H](Cc2ccc(O)cc2)NC(=O)[C@@H](NC(=O)[C@H](N)Cc2ccc3ccccc3c2)CSSC[C@@H](C(=O)N[C@H](C(N)=O)C(C)O)NC1=O (some centres unmarked) [Example 14] (H-[d2Nal]CY[dY]KVC[Thr(3ξ)]-NH2; disulfide 2-7)
Result: ≤ 1000 nM

----------
// endpoint pKi / system UniProtKB P30874
Sequence (P30874 whole entry): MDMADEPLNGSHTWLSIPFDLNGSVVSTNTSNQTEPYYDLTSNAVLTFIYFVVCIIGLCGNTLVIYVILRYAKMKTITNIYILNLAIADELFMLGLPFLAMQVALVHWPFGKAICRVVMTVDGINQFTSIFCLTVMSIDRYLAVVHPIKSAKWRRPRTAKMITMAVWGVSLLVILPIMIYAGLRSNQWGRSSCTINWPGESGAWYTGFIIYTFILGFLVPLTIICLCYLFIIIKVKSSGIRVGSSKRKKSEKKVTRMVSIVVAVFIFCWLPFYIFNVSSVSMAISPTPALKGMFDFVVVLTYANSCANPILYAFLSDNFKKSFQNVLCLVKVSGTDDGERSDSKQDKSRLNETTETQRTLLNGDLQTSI
pKi: −log10 of the molar value. Bridge positions count the residues as written; N and C are the ends. Square brackets hold non-standard residues; d marks the D form. Peptide text beside a SMILES is read from it. ξ: configuration not given here. dPhe(3-Br) = N[C@H](Cc1cccc(Br)c1)C(=O)O; dPhe(2-Br) = N[C@H](Cc1ccccc1Br)C(=O)O; dPhe(3-F) = N[C@H](Cc1cccc(F)c1)C(=O)O; d2Nal = N[C@H](Cc1ccc2ccccc2c1)C(=O)O; Thr(3ξ) = CC(O)[C@H](N)C(=O)O

CC(C)[C@@H]1NC(=O)[C@H](CCCCN)NC(=O)[C@@H](Cc2ccccc2Br)NC(=O)[C@H](Cc2ccc(O)cc2)NC(=O)[C@@H](NC(=O)[C@H](N)Cc2ccc3ccccc3c2)CSSC[C@@H](C(=O)N[C@H](C(N)=O)C(C)O)NC1=O (stereo partly shown) [Example 19] (H-[d2Nal]CY[dPhe(2-Br)]KVC[Thr(3ξ)]-NH2; disulfide 2-7)    ≥ 8.30

Ask: Recall the reported pKi of CC(C)[C@@H]1NC(=O)[C@H](CCCCN)NC(=O)[C@@H](Cc2cccs2)NC(=O)[C@H](Cc2ccc(O)cc2)NC(=O)[C@@H](NC(=O)[C@H](N)Cc2ccc3ccccc3c2)CSSC[C@@H](C(=O)N[C@H](C(N)=O)C(C)O)NC1=O (stereo partly shown) [Example 2] when tested on UniProtKB P30874.
Result: ≥ 7.30

Ask: Please respond with reported pKi (system UniProtKB P30874) for CC(C)[C@@H]1NC(=O)[C@H](CCCCN)NC(=O)[C@@H](Cc2cccc(Br)c2)NC(=O)[C@H](Cc2ccc(O)cc2)NC(=O)[C@@H](NC(=O)[C@H](N)Cc2ccc3ccccc3c2)CSSC[C@@H](C(=O)N[C@H](C(N)=O)C(C)O)NC1=O (stereo partly shown) [Example 18] (H-[d2Nal]CY[dPhe(3-Br)]KVC[Thr(3ξ)]-NH2; disulfide 2-7) .
Result: ≥ 8.30

Ask: # lookup: UniProtKB P30874 pKi, key = CC(C)[C@@H]1NC(=O)[C@H](CCCCN)NC(=O)[C@@H](Cc2cccc(F)c2)NC(=O)[C@H](Cc2ccc(O)cc2)NC(=O)[C@@H](NC(=O)[C@H](N)Cc2ccc3ccccc3c2)CSSC[C@@H](C(=O)N[C@H](C(N)=O)C(C)O)NC1=O (stereo partly shown) [Example 15] (H-[d2Nal]CY[dPhe(3-F)]KVC[Thr(3ξ)]-NH2; disulfide 2-7)
Result: ≥ 8.30
